Conditions: in ethanol, 303.15 K
Measurement Kind: solubility (mole fraction)

(1) O=C(/C=C/c1cn(-c2ccccc2)nc1-c1ccccc1)c1nc2ccccc2[nH]1
(2) O=C(/C=C/c1cn(-c2ccccc2)nc1-c1cccc([N+](=O)[O-])c1)c1nc2ccccc2[nH]1
(3) COc1ccc(-c2nn(-c3ccccc3)cc2/C=C/C(=O)c2nc3ccccc3[nH]2)cc1
Order by solubility (mole fraction), ascending. Provide the labels, sequenced as the question asks.
2, 1, 3

(I) O=C(/C=C/c1cn(-c2ccccc2)nc1-c1ccc(Cl)cc1)c1nc2ccccc2[nH]1
(II) COc1ccc(-c2nn(-c3ccccc3)cc2/C=C/C(=O)c2nc3ccccc3[nH]2)cc1OC
Form field 'greater solubility (mole fraction)' accepts I or II ; which applies? Label of pick, please.
I

(1) O=C(/C=C/c1cn(-c2ccccc2)nc1-c1ccccc1Cl)c1nc2ccccc2[nH]1
(2) COc1cccc(-c2nn(-c3ccccc3)cc2/C=C/C(=O)c2nc3ccccc3[nH]2)c1
Select the item whose solubility (mole fraction) value is smaller, choosing between 1 and 2 . Label of pick, please.
2

---

Settings: in n-propanol, 303.15 K
Measurement Kind: solubility (mole fraction)

[
  {
    "Chem Smiles": "O=C(/C=C/c1cn(-c2ccccc2)nc1-c1ccccc1Cl)c1nc2ccccc2[nH]1",
    "solubility (mole fraction)": 0.000167
  }
]

(A) O=C(/C=C/c1cn(-c2ccccc2)nc1-c1cccc([N+](=O)[O-])c1)c1nc2ccccc2[nH]1
(B) COc1ccc(-c2nn(-c3ccccc3)cc2/C=C/C(=O)c2nc3ccccc3[nH]2)cc1
Form field 'greater solubility (mole fraction)' accepts A or B ; which applies? Label of pick, please.
B

(a) O=C(/C=C/c1cn(-c2ccccc2)nc1-c1ccc(Cl)cc1)c1nc2ccccc2[nH]1
(b) O=C(/C=C/c1cn(-c2ccccc2)nc1-c1ccccc1)c1nc2ccccc2[nH]1
Form field 'greater solubility (mole fraction)' accepts a or b ; which applies? Label of pick, please.
b
(b: 0.000152, a: 0.000103)

---

Settings: in ethyl acetate, 298.15 K
Measurement Kind: solubility (mole fraction)

[
  {
    "Chem Smiles": "O=C(/C=C/c1cn(-c2ccccc2)nc1-c1ccccc1Cl)c1nc2ccccc2[nH]1",
    "solubility (mole fraction)": 0.00077
  },
  {
    "Chem Smiles": "O=C(/C=C/c1cn(-c2ccccc2)nc1-c1cccc([N+](=O)[O-])c1)c1nc2ccccc2[nH]1",
    "solubility (mole fraction)": 0.0013
  },
  {
    "Chem Smiles": "COc1cccc(-c2nn(-c3ccccc3)cc2/C=C/C(=O)c2nc3ccccc3[nH]2)c1",
    "solubility (mole fraction)": 0.000241
  },
  {
    "Chem Smiles": "O=C(/C=C/c1cn(-c2ccccc2)nc1-c1ccc(Cl)cc1)c1nc2ccccc2[nH]1",
    "solubility (mole fraction)": 0.000257
  }
]

(a) COc1ccc(-c2nn(-c3ccccc3)cc2/C=C/C(=O)c2nc3ccccc3[nH]2)cc1
(b) COc1ccc(-c2nn(-c3ccccc3)cc2/C=C/C(=O)c2nc3ccccc3[nH]2)cc1OC
(c) O=C(/C=C/c1cn(-c2ccccc2)nc1-c1ccccc1)c1nc2ccccc2[nH]1
Rank order required: solubility (mole fraction), descending. Provide the labels, sequenced as the question asks.
a, b, c
(a: 0.000809, b: 0.000355, c: 0.000159)
